study-target: UniProt:Q96DB2
Sequence (Q96DB2 whole entry): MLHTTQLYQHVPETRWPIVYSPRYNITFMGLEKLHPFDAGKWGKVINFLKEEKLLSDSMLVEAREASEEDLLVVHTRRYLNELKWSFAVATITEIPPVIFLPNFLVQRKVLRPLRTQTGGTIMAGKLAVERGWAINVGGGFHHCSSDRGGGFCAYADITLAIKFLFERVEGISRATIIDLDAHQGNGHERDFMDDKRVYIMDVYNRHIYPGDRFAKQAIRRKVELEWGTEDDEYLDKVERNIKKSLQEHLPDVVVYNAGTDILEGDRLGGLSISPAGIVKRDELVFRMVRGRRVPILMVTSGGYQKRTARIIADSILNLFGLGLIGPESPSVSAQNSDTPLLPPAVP
assay-protocol: HDAC enzyme activity inhibition assay, HDAC11
Type: biochemical
run-parameters: Table 2; mean of two experiments
observable: IC50 (nM)
Express your answer in nM, writing the number without its unit.

Can you look up the measured IC50 of O=C(NO)c1ccc(CN2CCCc3cc(Cl)ccc32)cc1 [Example 2] for me?
746

====

study-target: HDAC9 (Homo sapiens (Human))
Sequence (Q9UKV0 whole entry): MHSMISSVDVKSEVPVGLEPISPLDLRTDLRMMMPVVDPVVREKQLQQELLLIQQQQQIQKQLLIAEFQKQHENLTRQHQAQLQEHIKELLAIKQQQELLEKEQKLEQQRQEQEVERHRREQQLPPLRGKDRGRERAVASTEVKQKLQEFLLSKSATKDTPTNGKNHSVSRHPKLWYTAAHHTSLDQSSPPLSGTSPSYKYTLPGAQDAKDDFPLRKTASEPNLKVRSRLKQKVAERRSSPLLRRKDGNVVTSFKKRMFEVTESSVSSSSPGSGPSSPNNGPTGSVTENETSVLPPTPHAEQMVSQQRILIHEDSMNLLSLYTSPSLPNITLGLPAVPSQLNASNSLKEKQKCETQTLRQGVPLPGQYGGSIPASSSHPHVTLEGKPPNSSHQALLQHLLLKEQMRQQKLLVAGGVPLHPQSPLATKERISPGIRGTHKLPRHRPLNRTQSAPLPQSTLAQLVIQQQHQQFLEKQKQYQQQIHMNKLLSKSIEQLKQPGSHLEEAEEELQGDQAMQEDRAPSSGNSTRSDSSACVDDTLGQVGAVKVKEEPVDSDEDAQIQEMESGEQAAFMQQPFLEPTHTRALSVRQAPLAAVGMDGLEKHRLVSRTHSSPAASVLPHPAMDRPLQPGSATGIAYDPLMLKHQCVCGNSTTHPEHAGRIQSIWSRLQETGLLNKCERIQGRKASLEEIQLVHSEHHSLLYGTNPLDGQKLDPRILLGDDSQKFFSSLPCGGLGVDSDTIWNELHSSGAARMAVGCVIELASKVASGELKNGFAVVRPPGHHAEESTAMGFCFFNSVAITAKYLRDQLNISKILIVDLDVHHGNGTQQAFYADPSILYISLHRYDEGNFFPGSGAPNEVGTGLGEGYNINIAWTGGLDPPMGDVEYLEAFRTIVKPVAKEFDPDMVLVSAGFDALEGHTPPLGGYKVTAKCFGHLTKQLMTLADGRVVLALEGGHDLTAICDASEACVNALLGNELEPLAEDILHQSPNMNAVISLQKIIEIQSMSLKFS
assay-protocol: HDAC enzyme activity inhibition assay, HDAC9
Type: biochemical
run-parameters: Table 2; mean of two experiments
observable: IC50 (nM)
Express your answer in nM, writing the number without its unit.

Can you look up the measured IC50 of `O=C(NO)c1ccc(CN2CCCc3cc(Cl)ccc32)cc1` for me?
3460

The values you see were collected from patent US10456394B2.
